System: Botrytis cinerea
Assay: Control of Botrytis cinerea disease in Arabidopsis (Bc-At)
Format: in vivo
Conditions: 1 μM spraying every 24 hours for one week, water control 8.7
Entries annotated with measured Bc-At: mean of the diameter of the lesion
Report only the number, with the unit mm understood.

compound	unitSymbol	reported
CC1=COC2c3c(oc(=O)c(CC(=O)NCC(O)CO)c3C)C=CC12 (stereo not drawn) [IIH]	mm	1.5
O=C(Cc1cc2c(oc1=O)C=CC1C=COC21)NCC(O)CO (stereo not drawn) [IIF]	mm	1.1
Cc1nc(N2CCN(c3ccccc3)CC2)ncc1C(=O)N1CC2CC(O)C(O)CC2C1 (stereo not drawn) [IIID]	mm	1.1
CN1c2cc(C(N)=O)ccc2OCC1CC(=O)NC(CO)CO (stereo not drawn) [VJ]	mm	1.2
CN1c2cc(C(=O)NC3CCCCC3)ccc2OCC1CC(=O)NC(CO)CO (stereo not drawn) [VF]	mm	1.5
O=C(CCc1cc2cc3c(C4CCCC4)coc3cc2oc1=O)NCC(O)CO (stereo not drawn) [ID]	mm	1.5
O=C(CCc1cc2cc3c(-c4ccccc4)coc3cc2oc1=O)NCC(O)CO (stereo not drawn) [IB]	mm	1.1
Cc1coc2cc3oc(=O)c(CCC(=O)NCC(O)CO)c(C)c3cc12 (stereo not drawn) [IH]	mm	1.1

Per the record, CC(O)C(O)CN1CCC(Oc2ccc(C(=O)N3CCC(C4CCCCC4)C3)cc2)CC1 (stereo not drawn) [IVF] has Bc-At: mean of the diameter of the lesion of 1.5

Per the record, Cc1c(CCC(=O)NCC(O)CO)c(=O)oc2cc3occ(C4CCCCC4)c3cc12 (stereo not drawn) [IJ] has Bc-At: mean of the diameter of the lesion of 1.5

Per the record, O=C(c1cnc(N2CCN(C3CCCC3)CC2)nc1)N1CC2CC(O)C(O)CC2C1 (stereo not drawn) [IIIG] has Bc-At: mean of the diameter of the lesion of 2.4

Per the record, Cc1c2c(oc(=O)c1CC(=O)NCC(O)CO)C=CC1C(C3CCCC3)=COC21 (stereo not drawn) [IIK] has Bc-At: mean of the diameter of the lesion of 1.2

Per the record, Cc1c(CCC(=O)NCC(O)CO)c(=O)oc2cc3occc3cc12 (stereo not drawn) [IM] has Bc-At: mean of the diameter of the lesion of 1.2

Per the record, O=C(c1ccc(OC2CCN(CC(O)CO)CC2)cc1)N1CCC(C2CCCC2)C1 (stereo not drawn) [IVG] has Bc-At: mean of the diameter of the lesion of 2.4

Per the record, CC1CCN(C(=O)c2ccc(OC3CCN(CC(O)C(C)O)CC3)cc2)C1 (stereo not drawn) [IVB] has Bc-At: mean of the diameter of the lesion of 0.7
